Recorded GI50 values (HCT-15) are given below.
Metric: GI50

1) O=c1cccccc1NCCCCCCCCCNc1cccccc1=O | 12.2 µM
2) CC(=O)C1(c2ccccc2)CCN(Cn2sc3nc(C)cc(C)c3c2=O)CC1 | 26.5 µM
3) O=C1c2ccccc2OP(=O)(OCC(F)(F)F)OC1(C(F)(F)F)C(F)(F)F (stereo not drawn) | > 100 µM
4) COc1ccc2nc3cc(Cl)ccc3c(NCCCCCC(=O)NC(COc3cnc4c(ccc5cccnc54)c3)COc3cnc4c(ccc5cccnc54)c3)c2c1 | > 100 µM
5) Cc1cc(N(CCC#N)CCC#N)ccc1C(/N=N\c1ccc(C(=O)O)cc1)=N\NC(=O)c1cc(Cl)ccc1O | > 100 µM
6) CCCN1C(=O)/C(=C\c2ccc(OC)c(OC)c2)S/C1=N\c1ccccc1 | > 100 µM
7) Cc1cccc(/N=N/C(=N\NC(=O)c2cc(Cl)ccc2O)c2ccc(N(CCC#N)CCC#N)cc2C)c1 | 27.7 µM
8) COc1ccc(/C=N\N2C(=O)Cc3ccccc32)cc1 | > 100 µM
9) Oc1cc(-c2cccc(C(F)(F)F)c2)nc2cc3c(cc12)OCO3 | 1.38 µM
10) CCOC(=O)NC(=O)c1cn(C2OC(COC(=O)CCCCCCCCC(=O)OCC3OC(n4cc(C(=O)NC(=O)OCC)c(=O)[nH]c4=O)C(O)C3O)C(O)C2O)c(=O)[nH]c1=O (stereo not drawn) | > 100 µM
11) Cc1cccc(C(=O)O)c1C(=O)c1cccc2ccccc12 | 37.7 µM
12) FC(F)(F)c1nc2ccc(SSc3ccc4nc(C(F)(F)F)[nH]c4c3)cc2[nH]1 | 93.5 µM
13) N#Cc1c(-c2ccccc2)cc(-c2ccc(N)cc2)[nH]c1=O | > 100 µM
14) O=C(NC12CC3CC(CC(C3)C1)C2)n1cnc2cncnc21 | 27.7 µM
15) O=C1C(=O)N(c2cccc(C(F)(F)F)c2)C(=O)C(=O)C1c1nc2ccccc2s1 | 39.6 µM
16) C=C1CC[C@@]2(OC1)OC1C[C@H]3[C@@H]4CC=C5C[C@@H](O)CC(OC6OCC(OC(=O)[C@@H](O)[C@@H](C)CC)C(OC(C)=O)C6OC6OC(C)C(O)C(O)C6O)[C@]5(C)[C@H]4CC[C@]3(C)C1[C@@H]2C (stereo partly drawn) | 1.91 µM
17) COc1cc2ccc3c4ccccc4cnc3c2cc1OC | > 100 µM
18) Cc1ccc(/N=N/C(=O)NNc2ccc(C)c([N+](=O)[O-])c2)cc1[N+](=O)[O-] | 30.1 µM
